Kindly supply the reported Ratio values for the records listed here.
# assay target: ATP-dependent translocase ABCB1 (Homo sapiens, UniProt P08183)
# Sequence (P08183 whole entry): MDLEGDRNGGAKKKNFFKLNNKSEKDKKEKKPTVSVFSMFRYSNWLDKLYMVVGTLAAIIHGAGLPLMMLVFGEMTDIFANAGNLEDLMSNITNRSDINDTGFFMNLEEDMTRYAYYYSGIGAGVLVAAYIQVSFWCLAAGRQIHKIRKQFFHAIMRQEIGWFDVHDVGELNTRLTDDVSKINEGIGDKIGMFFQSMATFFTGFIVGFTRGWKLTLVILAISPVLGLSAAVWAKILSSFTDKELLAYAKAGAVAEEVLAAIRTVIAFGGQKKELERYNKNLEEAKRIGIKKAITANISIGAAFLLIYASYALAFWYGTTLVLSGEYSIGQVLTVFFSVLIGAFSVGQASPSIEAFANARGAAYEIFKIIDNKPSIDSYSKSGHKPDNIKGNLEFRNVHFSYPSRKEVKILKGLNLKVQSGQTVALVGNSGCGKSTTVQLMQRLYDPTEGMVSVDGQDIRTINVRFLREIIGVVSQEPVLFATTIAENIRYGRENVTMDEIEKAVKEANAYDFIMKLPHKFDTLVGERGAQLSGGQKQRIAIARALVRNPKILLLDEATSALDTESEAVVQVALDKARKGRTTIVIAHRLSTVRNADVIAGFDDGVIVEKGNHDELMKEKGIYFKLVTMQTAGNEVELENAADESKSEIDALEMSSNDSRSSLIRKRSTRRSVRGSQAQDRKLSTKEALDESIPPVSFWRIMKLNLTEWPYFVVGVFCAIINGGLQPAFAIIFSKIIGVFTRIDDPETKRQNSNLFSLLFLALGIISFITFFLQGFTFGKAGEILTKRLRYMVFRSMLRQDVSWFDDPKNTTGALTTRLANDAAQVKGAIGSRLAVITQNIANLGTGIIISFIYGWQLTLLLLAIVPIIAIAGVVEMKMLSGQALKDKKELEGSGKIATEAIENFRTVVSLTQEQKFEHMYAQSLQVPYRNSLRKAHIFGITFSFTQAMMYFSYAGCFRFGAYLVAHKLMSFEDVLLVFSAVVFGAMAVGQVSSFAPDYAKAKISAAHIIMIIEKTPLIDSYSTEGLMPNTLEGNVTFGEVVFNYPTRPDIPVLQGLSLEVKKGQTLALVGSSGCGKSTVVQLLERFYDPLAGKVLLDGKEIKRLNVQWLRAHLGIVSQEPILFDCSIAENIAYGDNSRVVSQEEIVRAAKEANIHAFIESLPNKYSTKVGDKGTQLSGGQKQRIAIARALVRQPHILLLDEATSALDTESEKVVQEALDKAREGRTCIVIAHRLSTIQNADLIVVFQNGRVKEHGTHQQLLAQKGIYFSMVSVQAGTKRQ
# procedure summary: Modulation of P-gp (unknown origin) transfected in human MDA435/LCC6MDR cells assessed as reversible of paclitaxel resistance measured as IC50 for paclitaxel at 1 uM after 5 days by CellTiter 96 Aqueous assay relative to PTX alone treated cell
# Type: cell-based
# test context: 120 h
One number for each entry.

Some solved entries appear below for comparison.
compound	Ratio
COc1cc(O)c2c(=O)c(OC(=O)c3cc(OC)c(OC)c(OC)c3)c(-c3ccc(OC)c(OC)c3)oc2c1	2.1
O=C(O[C@@H]1Cc2c(O)cc(O)cc2O[C@@H]1c1cc(O)c(O)c(O)c1)c1cc(O)c(O)c(O)c1 [EPIGALOCATECHIN GALLATE]	1.2
COc1cc(OC)c2c(c1)O[C@H](c1cc(OC)c(OC)c(OC)c1)[C@H](OC(=O)c1ccc(F)c(NC(=O)c3ccc(OC)c(OC)c3)c1)C2	48.2
COc1cc(OC)c2c(c1)O[C@H](c1cc(OC)c(OC)c(OC)c1)[C@@H](OC(=O)/C=C/c1ccc(OC)c(OC)c1)C2	12.3
COc1cc(OC)c2c(c1)O[C@H](c1cc(OC)c(OC)c(OC)c1)[C@H](OC(=O)c1ccc(F)c(NC(=O)/C=C/c3ccc(OC)c(OC)c3)c1)C2	17.9
COc1ccc(C(=O)OCCOc2c(-c3ccc(OC)c(OC)c3)oc3cc(OC)cc(OC)c3c2=O)cc1	6

Proceed to the following item.
Given "COc1cc(OC)c2c(c1)O[C@H](c1cc(OC)c(OC)c(OC)c1)[C@@H](OC(=O)c1ccc(F)c(NC(=O)c3ccc(OC)c(OC)c3)c1)C2=O" , state its recorded Ratio. 15.4

----------
Kindly supply the reported Ratio values for the records listed here.
# assay target: ATP-dependent translocase ABCB1 (Homo sapiens, UniProt P08183)
# procedure summary: Modulation of P-gp (unknown origin) transfected in human MDA435/LCC6MDR cells assessed as reversible of paclitaxel resistance measured as IC50 for paclitaxel at 1 uM after 5 days by CellTiter 96 Aqueous assay relative to PTX alone treated cell
# Type: cell-based
# test context: 120 h
One number for each entry.

Examples with their reported Ratio follow.
smiles text	Ratio
COc1cc(OC)c2c(c1)O[C@H](c1cc(OC)c(OC)c(OC)c1)[C@H](OC(=O)/C=C/c1ccc(OC)c(OC)c1)C2	16.6
CCOc1cc(C(=O)O[C@@H]2Cc3c(OC)cc(OC)cc3O[C@@H]2c2cc(OC)c(OC)c(OC)c2)cc(OCC)c1OCC	1.3
COc1cc(OC)c2c(c1)O[C@H](c1cc(OC)c(OC)c(OC)c1)[C@@H](OC(=O)c1ccc(F)c(NC(=O)/C=C/c3ccc(OC)c(OC)c3)c1)C2=O	10

Quick one: give me Ratio for each item below, same order please.
1. COc1ccc(/C=C/C(=O)O[C@@H]2Cc3c(OC)cc(OC)cc3O[C@@H]2c2cc(OC)c(OC)c(OC)c2)cc1
2. COc1ccc(CCC(=O)O[C@@H]2Cc3c(OC)cc(OC)cc3O[C@@H]2c2cc(OC)c(OC)c(OC)c2)cc1

6.6
3.6

Go through the list and state Ratio for each entry.
1. COc1cc(OC)c2c(c1)O[C@H](c1cc(OC)c(OC)c(OC)c1)[C@@H](OC(=O)c1cc(OC)c(OC)c(OC)c1)C2
2. CC(=O)Oc1cc(OC(C)=O)c2c(c1)O[C@H](c1cc(OC(C)=O)c(OC(C)=O)c(OC(C)=O)c1)[C@H](OC(=O)c1cc(OC(C)=O)c(OC(C)=O)c(OC(C)=O)c1)C2
3. COc1cc(OC)c2c(c1)O[C@H](c1cc(OC)c(OC)c(OC)c1)[C@H](OC(=O)c1ccc(F)cc1)C2
4. COc1cc(OC)c2c(c1)O[C@H](c1cc(OC)c(OC)c(OC)c1)[C@H](OC(=O)CCc1cc(OC)c(OC)c(OC)c1)C2

1: 3; 2: 0.8; 3: 2.7; 4: 8

// for each compound below, give its Ratio
1. COc1cc(OC)c2c(c1)O[C@H](c1cc(OC)c(OC)c(OC)c1)[C@@H](OC(=O)c1ccc(F)c(NC(=O)/C=C/c3cc(OC)c(OC)c(OC)c3)c1)C2
2. COc1cc(OC)c2c(c1)O[C@H](c1cc(OC)c(OC)c(OC)c1)[C@@H](OC(C)=O)C2=O
3. COc1cc(OC)c2c(c1)O[C@H](c1cc(OC)c(OC)c(OC)c1)[C@@H](OC(=O)c1ccc(F)c(NC(=O)c3cc(OC)c(OC)c(OC)c3)c1)C2

1. 34.4
2. 1.4
3. 53.6

State the recorded Ratio for every item in the following list.
1. COc1cc(OC)c2c(c1)O[C@H](c1cc(OC)c(OC)c(OC)c1)[C@H](OC(=O)c1ccc(F)c(N(C)C)c1)C2
2. COc1ccc(C(=O)Nc2cc(C(=O)Nc3cc(C(=O)O[C@@H]4Cc5c(OC)cc(OC)cc5O[C@@H]4c4cc(OC)c(OC)c(OC)c4)ccc3F)ccc2F)cc1

1. 4
2. 9.2

For every record below, what is its Ratio?
1. COc1cc(OC)c2c(c1)O[C@H](c1cc(OC)c(OC)c(OC)c1)[C@@H](OC(=O)/C=C/c1ccc(OC)c(OC)c1)C2=O
2. COc1cc(OC)c2c(c1)O[C@H](c1cc(OC)c(OC)c(OC)c1)[C@H](OC(=O)c1ccc(F)c(NC(=O)c3ccc(F)c(NC(=O)c4ccc(OC)c(OC)c4)c3)c1)C2
3. C=CCOc1cc(C(=O)O[C@H]2C(=O)c3c(OC)cc(OC)cc3O[C@@H]2c2cc(OC)c(OC)c(OC)c2)cc(OCC=C)c1OCC=C
4. COc1cc(OC)c2c(c1)O[C@H](c1cc(OC)c(OC)c(OC)c1)[C@H](OC(=O)c1ccc(F)c(NC(=O)c3cc(OC)c(OC)c(OC)c3)c1)C2

1: 5.5; 2: 10.6; 3: 4.6; 4: 43.8

----------
# assay target: ATP-dependent translocase ABCB1 (Homo sapiens, UniProt P08183)
# procedure summary: Modulation of P-gp (unknown origin) transfected in human MDA435/LCC6MDR cells assessed as reversible of paclitaxel resistance measured as IC50 for paclitaxel at 1 uM after 5 days by CellTiter 96 Aqueous assay relative to PTX alone treated cell
# Format: cell-based
# test context: 120 h
readout name: Ratio
Numbers only.

Recorded results for 3 compounds are shown here.
smiles text	data value
COc1cc(OC)c2c(c1)O[C@H](c1cc(OC)c(OC)c(OC)c1)[C@H](OC(=O)c1cccc(F)c1)C2	1.5
COc1ccc(CC(=O)O[C@@H]2Cc3c(OC)cc(OC)cc3O[C@@H]2c2cc(OC)c(OC)c(OC)c2)cc1	4.2
COc1cc(OC)c2c(c1)O[C@H](c1cc(OC)c(OC)c(OC)c1)[C@H](OC(=O)Cc1cc(OC)c(OC)c(OC)c1)C2	5.8

Kindly give each listed record's Ratio.
1. COc1cc(OC)c2c(c1)O[C@H](c1cc(OC)c(OC)c(OC)c1)[C@H](OC(=O)c1ccc(OC)c(OC)c1)C2
2. COc1cc(OC)c2c(c1)O[C@H](c1cc(OC)c(OC)c(OC)c1)[C@H](OC(=O)c1cc(OC)c(OC)c(OC)c1)C2
3. COc1cc(OC)c2c(c1)O[C@H](c1cc(OC)c(OC)c(OC)c1)[C@H](OC(=O)Cc1ccc(OC)c(OC)c1)C2
4. COc1cc(OC)c2c(c1)O[C@H](c1cc(OC)c(OC)c(OC)c1)[C@H](OC(=O)c1ccc(F)c(NC(C)=O)c1)C2

[7.4, 6.9, 4.5, 9.8]

----------
# assay target: UniProt:Q9UNQ0
# Sequence (Q9UNQ0 whole entry): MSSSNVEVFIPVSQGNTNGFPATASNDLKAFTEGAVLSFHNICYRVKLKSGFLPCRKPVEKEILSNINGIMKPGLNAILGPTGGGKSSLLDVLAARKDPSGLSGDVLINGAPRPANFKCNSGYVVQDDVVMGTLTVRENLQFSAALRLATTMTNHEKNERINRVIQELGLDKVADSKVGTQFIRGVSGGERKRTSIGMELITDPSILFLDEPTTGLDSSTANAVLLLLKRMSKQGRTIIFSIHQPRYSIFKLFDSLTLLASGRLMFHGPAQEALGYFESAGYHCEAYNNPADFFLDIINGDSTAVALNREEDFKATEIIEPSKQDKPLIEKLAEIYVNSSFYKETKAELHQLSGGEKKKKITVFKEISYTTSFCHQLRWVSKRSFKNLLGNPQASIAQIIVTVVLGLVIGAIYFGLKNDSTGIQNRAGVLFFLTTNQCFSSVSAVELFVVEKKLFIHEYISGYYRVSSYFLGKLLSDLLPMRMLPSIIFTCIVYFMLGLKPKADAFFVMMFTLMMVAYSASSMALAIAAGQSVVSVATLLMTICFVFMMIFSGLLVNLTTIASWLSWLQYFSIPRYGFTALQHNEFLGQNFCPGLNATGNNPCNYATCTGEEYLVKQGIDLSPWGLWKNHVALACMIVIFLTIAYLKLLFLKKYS
# procedure summary: Modulation of BCRP (unknown origin) transfected in human HEK293/R2 cells assessed as potentiation of topotecan-induced cytotoxicity measured as topotecan IC50 at 1 uM after 5 days by MTS assay relative to topotecan alone treated cell
# Assay type: cell-based
# test context: hek293/r2, 120 h
I'd be grateful if you could share measured Ratio for these entries.
Numbers only.

Solved entries (count: 3):
smiles text	readout name	data value
COc1cc(OC)c2c(c1)O[C@H](c1cc(OC)c(OC)c(OC)c1)[C@@H](OC(=O)c1ccc(F)c(NC(=O)c3cc(OC)c(OC)c(OC)c3)c1)C2	Ratio	12.3
COc1cc(OC)c2c(c1)O[C@H](c1cc(OC)c(OC)c(OC)c1)[C@@H](OC(=O)c1ccc(F)c(NC(=O)c3ccc(OC)c(OC)c3)c1)C2	Ratio	10.4
COc1cc(OC)c2c(c1)O[C@H](c1cc(OC)c(OC)c(OC)c1)[C@H](OC(=O)c1ccc(F)c(NC(=O)c3ccc(OC)c(OC)c3)c1)C2	Ratio	2.7

For the next question, use this molecule.
# Ratio lookup, item "COc1cc(OC)c2c(c1)O[C@H](c1cc(OC)c(OC)c(OC)c1)[C@H](OC(=O)c1ccc(F)c(NC(=O)c3cc(OC)c(OC)c(OC)c3)c1)C2" 2.3

Taken from ChEMBL document CHEMBL3580553.
